assayRemarks: acute toxicity in mice (LD50)
Assay type: in vivo
testParameters: mouse, in vivo, ip, male mouse, I.P.
Excerpt: The acute toxicity of the compounds according to the invention has been studied in mice. The lethal doses 50 are set out in the table which follows: LD50 DETERMINED IN THE MALE MOUSE -
Reported LD50 values for a set of molecules
valueKind: LD50

[
  {
    "molecule": "CCN1CCCC1CNC(=O)c1cc(S(C)(=O)=O)c(N)cc1OC (centres unmarked)",
    "observedValue": "234 to 238 mg/kg"
  },
  {
    "molecule": "CCS(=O)(=O)c1cc(C(=O)NCC2CCCN2C)c(OC)cc1N (single isomer, unassigned) [Compound 6]",
    "observedValue": "304 to 322 mg/kg"
  },
  {
    "molecule": "CCN1CCCC1CNC(=O)c1cc(S(=O)(=O)CC)c(N)cc1OC (single isomer, unassigned) [Compound 4]",
    "observedValue": "188 mg/kg"
  },
  {
    "molecule": "CCCS(=O)(=O)c1cc(C(=O)NCC2CCCN2CC)c(OC)cc1N (centres unmarked)",
    "observedValue": "160 to 165 mg/kg"
  },
  {
    "molecule": "COc1cc(N)c(S(C)(=O)=O)cc1C(=O)NCC1CCCN1C (centres unmarked)",
    "observedValue": "200 to 216 mg/kg"
  },
  {
    "molecule": "C=CCN1CCCC1CNC(=O)c1cc(S(=O)(=O)CC)c(N)cc1OC (centres unmarked)",
    "observedValue": "216 to 217 mg/kg"
  },
  {
    "molecule": "CCS(=O)(=O)c1cc(C(=O)NCC2CCCN2C)c(OC)cc1N (centres unmarked) [Compound 2]",
    "observedValue": "210 to 217 mg/kg"
  },
  {
    "molecule": "CCN1CCCC1CNC(=O)c1cc(S(=O)(=O)CC)c(N)cc1OC (centres unmarked) [Compound 1]",
    "observedValue": "175 to 180 mg/kg"
  }
]

* * *

assayRemarks: acute toxicity in mice (LD50)
Format: in vivo
testParameters: mouse, in vivo, po, male mouse
Reported LD50 values for a set of compounds

[
  {
    "compound": "CCS(=O)(=O)c1cc(C(=O)NCC2CCCN2C)c(OC)cc1N (single isomer, unassigned) [Compound 6]",
    "LD50": "1190 to 1260 mg/kg"
  },
  {
    "compound": "CCN1CCCC1CNC(=O)c1cc(S(C)(=O)=O)c(N)cc1OC (stereo not shown)",
    "LD50": "625 to 660 mg/kg"
  },
  {
    "compound": "CCN1CCCC1CNC(=O)c1cc(S(=O)(=O)CC)c(N)cc1OC (stereo not shown) [Compound 1]",
    "LD50": "1020 to 1050 mg/kg"
  },
  {
    "compound": "CCN1CCCC1CNC(=O)c1cc(S(=O)(=O)CC)c(N)cc1OC (single isomer, unassigned) [Compound 4]",
    "LD50": "1560 to 1620 mg/kg"
  },
  {
    "compound": "C=CCN1CCCC1CNC(=O)c1cc(S(=O)(=O)CC)c(N)cc1OC (stereo not shown)",
    "LD50": "2230 to 2380 mg/kg"
  },
  {
    "compound": "CCS(=O)(=O)c1cc(C(=O)NCC2CCCN2C)c(OC)cc1N (stereo not shown) [Compound 2]",
    "LD50": "1330 mg/kg"
  },
  {
    "compound": "CCCS(=O)(=O)c1cc(C(=O)NCC2CCCN2CC)c(OC)cc1N (stereo not shown)",
    "LD50": "570 to 629 mg/kg"
  }
]

Data credit: patent US4401822A
